# study system: T1, human IGFBP7 recombinant protein (UniProt Q16270 27-282, biotinylated with EZ-LINK NHS-PEG4 biotin in the BLI assays (sites not given))
# T1 chain: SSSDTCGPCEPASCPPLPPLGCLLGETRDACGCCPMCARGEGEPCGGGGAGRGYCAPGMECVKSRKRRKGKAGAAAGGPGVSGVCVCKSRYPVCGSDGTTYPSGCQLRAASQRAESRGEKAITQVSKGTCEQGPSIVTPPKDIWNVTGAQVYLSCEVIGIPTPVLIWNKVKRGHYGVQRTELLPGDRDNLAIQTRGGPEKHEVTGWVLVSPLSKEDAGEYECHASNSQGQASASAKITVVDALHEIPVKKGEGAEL
# test method notes: BLI
assay endpoint: pKd
One number for each entry, as −log10 of the molar value.

Solved entries:
[[record]]
binder = "A1-mIgG2a nanobody Fc-fusion (Fc fusion, VHH fused with mIgG2a Fc fragment, expressed in Expi293 cells, Protein G purified; also called monoclonal A1-mIgG2a; monospecific A1-mIgG2a; not shown: mouse IgG2a Fc fragment (mIgG2a Fc)) VQLQESGGGLVQAGGSLRLSCAASGSLFAIDKWGWYRQVAGNERELVAWRYSPVSINYGDSVKGRFTVSGDSSRKRVYLQMNSLKPDDTAVYRCAAVISGAWYWGQGTQVTVSS"
value_measured = 8.43

[[record]]
binder = "A11 mIgG2a (antibody, V domains shown) VH: VQLQESEGGWSGGGSGSGDFDYEKMANANNGAMTDNADAGKQREFVAAITSGGSINYADSVKGRFTISRDNTKKTVYLQMNSLKPEDTAVYVCNIKAHPNPWGFDNDYWGQGTQVTVSS"
value_measured = 10.89

[[record]]
binder = "D4-mIgG2a nanobody Fc-fusion (Fc fusion, VHH fused with mIgG2a Fc fragment, expressed in Expi293 cells; also called monospecific D4-mIgG2a; not shown: mouse IgG2a Fc fragment (mIgG2a Fc)) VQLQESGGGLVQTGGSLRLSCAASGRSFTFSSYAMGWFRHAPGKEREFLTAITWSGDYTYYTDSVKGRSTISRDNAKNTVYLQLNNLKPEDTAVYYCAAKFSQVSAFFATVSEYEYWGQGTQVTVSS"
value_measured = 8.94


# return recorded pKd for input A4-mIgG2a nanobody Fc-fusion (Fc fusion) VQLQESGGGLVQPGGSLRLSCAASGTFTINTYLWYRQPPGKQREFVAAITRGGSINYADSVKGRFTISRDNAKKTVYLQMNSLKPEDTAVYVCNIKAHPNPWGFDNDYWGQGTQVTVSS 8.92
